Target System: human RORγ (Homo sapiens, UniProt P51449)
Construct: human RORγ, from Ser253 to Lys518; expressed in transfected cells; host or cells: CHO cells (Chinese hamster ovary), transient co-transfection with pG5-Luc
Sequence (P51449 253-518): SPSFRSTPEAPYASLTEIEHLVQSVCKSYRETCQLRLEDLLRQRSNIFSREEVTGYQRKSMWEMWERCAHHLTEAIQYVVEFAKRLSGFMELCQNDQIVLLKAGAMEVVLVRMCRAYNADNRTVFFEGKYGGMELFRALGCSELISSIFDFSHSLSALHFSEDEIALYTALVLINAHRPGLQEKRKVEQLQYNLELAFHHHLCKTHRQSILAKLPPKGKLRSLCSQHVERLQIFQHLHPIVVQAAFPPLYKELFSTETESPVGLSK
Protocol Description: In vitro assay of inhibitory effect against RORγ transcriptional activity (GAL4-hRORγ LBD luciferase reporter gene assay in CHO cells)
Assay type: cell-based
Experimental Context: GAL4-hRORγ LBD / pG5-Luc in CHO cells, 2 days incubation
Procedure: In Vitro Assay of Inhibitory Effect Against RORγ Transcriptional Activity Inhibitory effect of a test article on transcriptional activity of RORγ was measured by means of the following reporter gene assay. […] RORγ transcriptional activity was detected as the intracellular luciferase activity using SteadyLite HTS Reporter Gene Assay System (Perkin Elmer). […] After the incubation at room temperature for 10 minutes, luminescence of each well was measured by a microplate reader. […]
Quantity Name: EC50 (nM)

Recorded results for 2 compounds are shown here.
                                   compound  quantity_name  obs_value
0  CC(C)(C)COc1ccc(C2NC(=O)NC=C2C(C)(C)CC(=O)O)cc1Cl (racemic)           EC50       1440
1  CC(C)C1=CN(CCC(=O)O)C(=O)N[C@@]1(C)c1cc(F)c(OCc2ccccc2)c(Cl)c1           EC50        154

(I) CC(C)(C)CCc1ccc([C@]2(C)NC(=O)N(CCCC(=O)O)C=C2C2CCCCC2)cc1Cl
(II) CC(C)(C)CCc1ccc(C2(C)NC(=O)N(CCC(=O)O)C=C2C2(C)CC2)cc1Cl (single isomer, unassigned)
Exam item: So which one has the bigger EC50 here, I or II ? Lab note: record the label of whichever item you select.
Marked response: I
(I: 26 nM, II: 12 nM)

(I) CC(C)C1=CN(CC2(C(=O)O)CC2)C(=O)N[C@@]1(C)c1ccc(CCC(C)(C)C)c(Cl)c1
(II) CC(C)C1=CN(CC2(C(=O)O)CC2)C(=O)N[C@]1(C)c1ccc(CCC(C)(C)C)c(Cl)c1
Exam item: So which one has the bigger EC50 here, I or II ? Lab note: record the label of whichever item you select.
Marked response: II
(II: 1340 nM, I: 13 nM)

(1) CC(C)CC1=CN(CCC(=O)O)C(=O)N[C@@]1(C)c1ccc(CCC(C)(C)C)c(Cl)c1
(2) CC(C)C1=CN(CCC(=O)O)C(=O)N[C@@]1(C)c1ccc(C2=CCCC2)c(Cl)c1
Exam item: So which one has the bigger EC50 here, 1 or 2 ? Lab note: record the label of whichever item you select.
Marked response: 2

(P) CC(C)C1=CN(CCOCC(=O)O)C(=O)NC1(C)c1ccc(CCC(C)(C)C)c(Cl)c1 (single isomer, unassigned) [Example 40]
(Q) CC(C)C1=CN(CCCC(=O)O)C(=O)NC1(C)c1ccc(OCC(C)(C)C)c(Cl)c1 (single isomer, unassigned) [Example 12]
Exam item: Looking at recorded values for EC50, does P or Q come in lower? Lab note: record the label of whichever item you select.
Marked response: Q
(Q: 23 nM, P: 152 nM)
